Property: Activity; scope: individual molecules
# tested system: Protein cereblon/von Hippel-Lindau disease tumor suppressor (Homo sapiens, UniProt P40337+Q96SW2)
# Sequence (P40337 whole entry, looked up): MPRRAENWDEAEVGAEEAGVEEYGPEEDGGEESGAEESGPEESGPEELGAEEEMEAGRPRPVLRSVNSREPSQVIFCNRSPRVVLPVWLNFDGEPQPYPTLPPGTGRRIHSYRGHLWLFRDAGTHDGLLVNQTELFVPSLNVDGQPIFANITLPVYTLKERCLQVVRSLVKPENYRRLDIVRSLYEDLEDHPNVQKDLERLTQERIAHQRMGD
# Sequence (Q96SW2 whole entry, looked up): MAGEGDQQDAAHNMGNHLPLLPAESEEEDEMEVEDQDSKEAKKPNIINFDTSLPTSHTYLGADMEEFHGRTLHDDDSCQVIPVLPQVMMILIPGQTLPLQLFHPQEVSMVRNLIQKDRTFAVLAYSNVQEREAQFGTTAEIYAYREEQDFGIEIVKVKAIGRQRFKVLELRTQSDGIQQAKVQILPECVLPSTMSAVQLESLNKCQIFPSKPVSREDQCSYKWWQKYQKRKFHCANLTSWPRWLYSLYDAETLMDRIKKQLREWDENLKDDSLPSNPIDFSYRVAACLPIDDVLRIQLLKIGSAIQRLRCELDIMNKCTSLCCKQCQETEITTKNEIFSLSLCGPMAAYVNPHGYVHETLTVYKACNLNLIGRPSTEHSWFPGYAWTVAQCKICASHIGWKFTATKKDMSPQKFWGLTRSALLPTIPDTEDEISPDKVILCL
# test description: Protac activity at VHL/CRBN in human HeLa cells assessed as pVHL19 protein abundance at 1 uM after 4 hrs by Western blot analysis relative to DMSO
# Format: cell-based
Could you give me the number in %? Just the number is fine.

Known Activity results, listed for orientation:
INSERT INTO assay_data (molecule, units, test_result) VALUES
  ('Cc1ncsc1-c1ccc(CNC(=O)[C@@H]2C[C@@H](O)CN2C(=O)[C@@H](NC(=O)COCCOCCOCCOCCOCCOCC(=O)NCCNc2cccc3c2C(=O)N(C2CCC(=O)NC2=O)C3=O)C(C)(C)C)cc1 (stereo not given in full)', '%', 97),
  ('Cc1ncsc1-c1ccc(CNC(=O)[C@@H]2C[C@@H](O)CN2C(=O)[C@@H](NC(=O)C2(F)CC2)C(C)(C)SCCOCCOCCOCC(=O)NCCNc2cccc3c2C(=O)N(C2CCC(=O)NC2=O)C3=O)cc1 (stereo not given in full)', '%', 121),
  ('O=C1CCC(N2C(=O)c3cccc(NCCOCCOCCNc4cccc5c4C(=O)N(C4CCC(=O)NC4=O)C5=O)c3C2=O)C(=O)N1 (stereo not given)', '%', 100);

[ask] # Activity lookup, item Cc1ncsc1-c1ccc(CNC(=O)[C@@H]2C[C@@H](O)CN2C(=O)[C@@H](NC(=O)C2(F)CC2)C(C)(C)C)c(OCCCCC(=O)NCCNc2cccc3c2C(=O)N(C2CCC(=O)NC2=O)C3=O)c1 (stereo not given in full)
[reply] 134

[ask] # Activity lookup, item Cc1ncsc1-c1ccc(CNC(=O)[C@@H]2C[C@@H](O)CN2C(=O)[C@@H](NC(=O)COCCOCCOCCOCCOCCOCCOCCOCCOCC(=O)NCCNc2cccc3c2C(=O)N(C2CCC(=O)NC2=O)C3=O)C(C)(C)C)cc1 (stereo not given in full)
[reply] 95

[ask] # Activity lookup, item Cc1ncsc1-c1ccc(CNC(=O)[C@@H]2C[C@@H](O)CN2C(=O)[C@@H](NC(=O)C2(F)CC2)C(C)(C)C)c(OCCOCCOCCOCC(=O)NCCNc2cccc3c2C(=O)N(C2CCC(=O)NC2=O)C3=O)c1 (stereo not given in full)
[reply] 115

[ask] # Activity lookup, item Cc1ncsc1-c1ccc(CNC(=O)[C@@H]2C[C@@H](O)CN2C(=O)[C@@H](NC(=O)COCCCCCOCCOCCCCCOCC(=O)NCCNc2cccc3c2C(=O)N(C2CCC(=O)NC2=O)C3=O)C(C)(C)C)cc1 (stereo not given in full)
[reply] 100

[ask] # Activity lookup, item Cc1ncsc1-c1ccc(CNC(=O)[C@@H]2C[C@@H](O)CN2C(=O)[C@@H](NC(=O)COCCOCCOCCOCC(=O)NCCNc2cccc3c2C(=O)N(C2CCC(=O)NC2=O)C3=O)C(C)(C)C)cc1 (stereo not given in full)
[reply] 103

[ask] # Activity lookup, item Cc1ncsc1-c1ccc(CNC(=O)[C@@H]2C[C@@H](O)CN2C(=O)[C@@H](NC(=O)C2(F)CC2)C(C)(C)SCCOCCOCCOCCOCCOCC(=O)NCCNc2cccc3c2C(=O)N(C2CCC(=O)NC2=O)C3=O)cc1 (stereo not given in full)
[reply] 112

[ask] # Activity lookup, item Cc1ncsc1-c1ccc(CNC(=O)[C@@H]2C[C@@H](O)CN2C(=O)[C@@H](NC(=O)COCCOCCOCCOCCOCC(=O)NCCNc2cccc3c2C(=O)N(C2CCC(=O)NC2=O)C3=O)C(C)(C)C)cc1 (stereo not given in full)
[reply] 103
